Value source: patent EP4800012A1

# System: NCI-H1373 cells
# PROTOCOL DETAILS: Inhibition on NCI-H1373 cell proliferation (Cell-Titer-Glo)
# Format: cell-based
# EXPERIMENTAL CONDITIONS: Homo sapiens, 144 h; NCI-H1373 cells, incubation for 6 days, Cell-Titer-Glo; read-out: NCI-H1373 cell proliferation inhibition IC50
Each record here notes measured IC50.

I'd like to know its IC50. The compound in question is CC(CCCNC(=O)c1cnc(-c2cc(C(F)(F)F)sn2)c(F)c1)Nc1cn[nH]c(=O)c1C(F)(F)F (centres unmarked) [Example 205]
300 to 1000 nM

Reported IC50, compound CC1CN(C(=O)[C@@H](CCCNC(=O)c2ccc(-c3ncc(C(F)(F)F)s3)cc2)Nc2cn[nH]c(=O)c2C(F)(F)F)C1 [Example 233] : ____
300 to 1000 nM

// returns reported IC50 for input CC(CCCNC(=O)c1ccc(-c2ncc(N3CCCCC3)s2)cc1)Nc1cn[nH]c(=O)c1C(F)(F)F (centres unmarked) [Example 58]
> 3000 nM

Consider the compound O=C(NCCCC(Nc1cn[nH]c(=O)c1C(F)(F)F)C(=O)N1CC2(CCC2)C1)c1cnc(-c2ncc(C(F)(F)F)cn2)cn1 (centres unmarked) [Example 87] and give its measured IC50.
< 300 nM

Next:
Fill blank: measured IC50 of the compound CC(CCCNC(=O)c1ccc(-c2ccc(=O)n(C)n2)cc1)Nc1cn[nH]c(=O)c1C(F)(F)F (centres unmarked) [Example 64] is ____.
> 3000 nM

Given the entry CC(CCNC(=O)c1cccc2c1[nH]c(=O)n2-c1ncc(C(F)(F)F)cn1)Nc1cn[nH]c(=O)c1C(F)(F)F (centres unmarked) [Example 6] , report its measured IC50.
> 3000 nM

For the compound CC(CCCNC(=O)c1ccc(-n2cccn2)c(F)c1)Nc1cn[nH]c(=O)c1C(F)(F)F (centres unmarked) [Example 62] , what IC50 is on record?
> 3000 nM

Which IC50 value belongs to O=C(NCCC[C@@H](Nc1cn[nH]c(=O)c1C(F)(F)F)C(=O)N1CCC2(CC2)C1)c1ccc(-c2ncc(C(F)(F)F)s2)cc1 [Example 220] ?
< 300 nM

Requested read-out: IC50. Entry: COc1nc(-c2ccc(C(=O)NCCCC(C)Nc3cn[nH]c(=O)c3C(F)(F)F)cc2)cs1 (centres unmarked) [Example 65]
> 3000 nM

So what's the measured IC50 for this one? CC(COCc1cc(-c2cnc(C(F)(F)F)nc2)sn1)Nc1cn[nH]c(=O)c1C(F)(F)F (centres unmarked) [Example 251]
> 3000 nM

What measured IC50 goes with CC(CCCNC(=O)c1ccc(-n2cc(C(F)(F)F)cn2)nc1)Nc1cn[nH]c(=O)c1C(F)(F)F (centres unmarked) [Example 206] ?
1000 to 3000 nM

What measured IC50 goes with CC(C)(C)NC(=O)[C@@H](CCCNC(=O)c1ccc(-c2ncc(C(F)(F)F)s2)cc1)Nc1cn[nH]c(=O)c1C(F)(F)F [Example 221] ?
< 300 nM

Requested read-out: IC50. Entry: CC(CCCNC(=O)c1ccc(-c2cc(C(F)(F)F)n(C)n2)cc1)Nc1cn[nH]c(=O)c1C(F)(F)F (centres unmarked) [Example 185]
300 to 1000 nM

For the compound CN(C(=O)[C@@H](CCCNC(=O)c1ccc(-c2ncc(C(F)(F)F)s2)cc1)Nc1cn[nH]c(=O)c1C(F)(F)F)C1CC1 [Example 223] , what IC50 is on record?
< 300 nM

###

Examples of compounds with documented IC50 follow.
# EXPERIMENTAL TARGET: PARP7 (Homo sapiens)
# Construct: purchased BPS 80527
# Sequence (Q7Z3E1 1-657): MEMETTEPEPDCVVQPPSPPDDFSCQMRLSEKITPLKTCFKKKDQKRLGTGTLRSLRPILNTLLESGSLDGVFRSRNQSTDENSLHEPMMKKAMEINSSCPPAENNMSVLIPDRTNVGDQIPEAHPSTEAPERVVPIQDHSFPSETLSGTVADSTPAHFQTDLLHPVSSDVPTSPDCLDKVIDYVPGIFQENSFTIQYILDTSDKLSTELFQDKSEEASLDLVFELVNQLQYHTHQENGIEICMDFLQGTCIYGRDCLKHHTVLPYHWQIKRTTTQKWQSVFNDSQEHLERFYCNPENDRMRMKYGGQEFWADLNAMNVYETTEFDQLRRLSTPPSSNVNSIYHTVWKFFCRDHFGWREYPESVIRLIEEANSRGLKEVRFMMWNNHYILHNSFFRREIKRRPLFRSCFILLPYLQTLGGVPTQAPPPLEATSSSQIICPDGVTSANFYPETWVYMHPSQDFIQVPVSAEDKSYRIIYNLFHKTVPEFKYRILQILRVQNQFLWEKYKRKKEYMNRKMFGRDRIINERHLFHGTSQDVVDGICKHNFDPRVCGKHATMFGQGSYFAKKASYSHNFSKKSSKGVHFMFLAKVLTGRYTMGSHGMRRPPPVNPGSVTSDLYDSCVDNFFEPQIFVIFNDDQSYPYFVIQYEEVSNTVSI
# PROTOCOL DETAILS: Inhibition of the compound on PARP7 protein activity (ADP-ribosylation, chemiluminescence)
# Type: biochemical
# EXPERIMENTAL CONDITIONS: Histone H1 coated plate, Biotin-Labeled NAD+, 2 h at room temperature, chemiluminescence; read-out: PARP7 activity inhibition IC50

API: value(readout=IC50, system=PARP7 (Homo sapiens)) for record O=C(NCCCC(Nc1cn[nH]c(=O)c1C(F)(F)F)C(=O)NC1CCCOC1)c1ccc(-c2ncc(C(F)(F)F)s2)cc1 (stereo not shown) [Example 235]
< 3 nM

Further cases:
// lookup IC50 | system=PARP7 (Homo sapiens) | key= CC(CCCNC(=O)c1ccc(-c2ncc(C(F)(F)F)cn2)cc1O)Nc1cn[nH]c(=O)c1C(F)(F)F (stereo not shown) [Example 1]
< 3 nM

For PARP7 (Homo sapiens), provide IC50 of O=C(NCCCC(Nc1cn[nH]c(=O)c1C(F)(F)F)C(=O)N1CCOCC1)c1ccc(-c2ncc(C(F)(F)F)s2)cc1 (stereo not shown) [Example 88] please.
< 3 nM

Observed IC50 on PARP7 (Homo sapiens) for CC(CCCNC(=O)c1cnc(-c2ncc(C(F)(F)F)s2)cn1)Nc1cc[nH]c(=O)c1C(F)(F)F (stereo not shown) [Example 31] , please.
< 3 nM

###

Listing of entries alongside the reported IC50.
# EXPERIMENTAL TARGET: PARP7 (Homo sapiens)
# Construct: purchased BPS 80527
# PROTOCOL DETAILS: Inhibition of the compound on PARP7 protein activity (ADP-ribosylation, chemiluminescence)
# Assay type: biochemical
# EXPERIMENTAL CONDITIONS: Histone H1 coated plate, Biotin-Labeled NAD+, 2 h at room temperature, chemiluminescence; read-out: PARP7 activity inhibition IC50

Identify the measured IC50 of CC(CCCNC(=O)c1ccc(-c2cc(C(F)(F)F)sn2)cc1F)Nc1cn[nH]c(=O)c1C(F)(F)F (centres unmarked) for PARP7 (Homo sapiens).
< 3 nM

Form field: IC50 recorded for CC(CCCNC(=O)c1ncc(-c2ncc(N3CC(F)C3)cn2)cc1F)Nc1cn[nH]c(=O)c1C(F)(F)F (centres unmarked) with PARP7 (Homo sapiens) (enter value)
< 3 nM

Form: Entry = CC(CCNC(=O)c1cccc2c1[nH]c(=O)n2-c1ncc(C(F)(F)F)cn1)Nc1cn[nH]c(=O)c1C(F)(F)F (centres unmarked) | System = PARP7 (Homo sapiens) | IC50 = ____
10 to 30 nM

Record CC1(C)CN(C(=O)C(CCCNC(=O)c2cnc(-c3ncc(C(F)(F)F)cn3)cn2)Nc2cn[nH]c(=O)c2C(F)(F)F)C1 (centres unmarked) : what is its IC50 with PARP7 (Homo sapiens)?
3 to 10 nM

Any idea what IC50 came out for N#CC1CCN(C(=O)[C@@H](CCCNC(=O)c2ccc(-c3ncc(C(F)(F)F)s3)cc2)Nc2cn[nH]c(=O)c2C(F)(F)F)CC1 on PARP7 (Homo sapiens)?
< 3 nM

Record CC(CCCNC(=O)c1ccc(-n2cc(C(F)(F)F)cn2)cc1)Nc1cn[nH]c(=O)c1C(F)(F)F (centres unmarked) : what is its IC50 with PARP7 (Homo sapiens)?
< 3 nM

Further cases:
Hi! What's the reported IC50 for CN(C(=O)[C@@H](CCCNC(=O)c1ccc(-c2ncc(C(F)(F)F)s2)cc1)Nc1cn[nH]c(=O)c1C(F)(F)F)C1CCC1 on PARP7 (Homo sapiens)?
3 to 10 nM

Give the reported IC50 for CC(CCCNC(=O)c1ccc(-c2csc(C(F)(F)F)n2)cc1)Nc1cn[nH]c(=O)c1C(F)(F)F (centres unmarked) (system: PARP7 (Homo sapiens)).
10 to 30 nM
